target: GAL4 DBD-CfEcR(DEF)/VP16AD-MmRXRE (Choristoneura fumiferana); experiment: 13B3 Assay (CHO stable cell line, luciferase reporter); conditions: 3.3 uM ligand; RLU ligand treated / RLU DMSO treated cells; average of two wells
# if measured Fold Induction, 13B3 Assay, 3.3 uM < 1000: Y  # else: N

{"compound": "CCCCC(CC)N(NC(=O)c1cccc(C)c1C)C(=O)c1ccccc1 (racemic)", "class.label": "Y"}
{"compound": "CCc1c(OC)cccc1C(=O)NN(C(=O)c1cc(F)c(Cl)cc1Cl)C(C)(C)C", "class.label": "Y"}
{"compound": "CCc1c(OC)cccc1C(=O)NN(C(=O)c1cccc(F)c1F)C(C)(C)C", "class.label": "N"}
{"compound": "CCc1cccc(C(=O)NN(C(=O)c2cc(C)cc(C)c2)C(C)(C)C)c1C", "class.label": "N"}
{"compound": "CC(=O)c1cccc(C(=O)NN(C(=O)c2cc(C)cc(C)c2)C(C)(C)C)c1C", "class.label": "Y"}
{"compound": "CCc1c(OC)cccc1C(=O)NN(C(=O)c1ccc(Cl)cc1[N+](=O)[O-])C(C)(C)C", "class.label": "N"}
{"compound": "Cc1c(C(=O)NN(C(=O)c2ccc(F)c(F)c2)C(C)(C)C)ccc2c1CCCO2", "class.label": "N"}
{"compound": "Cc1cc(C)cc(C(=O)N(NC(=O)c2ccc3c(c2F)COCO3)C(C)(C)C)c1", "class.label": "N"}
{"compound": "Cc1c(C(=O)NN(C(=O)c2cc(F)cc(F)c2)C(C)(C)C)ccc2c1CCCO2", "class.label": "N"}

Reference source: patent US9102648B1
